Data provenance is patent US20240197666A1.

IC50 listing for selected compounds.
Tested on: KP-4 (Pancreatic)
Assay details: Proliferation of KP-4
Format: cell-based
Details: 96 h; read-out: IC50 KP-4 (Pancreatic)
Property: IC50

1) CC1=C[C@H]2[C@@]3(O)[C@H](C)C[C@]4(OC(=O)[C@@H](N)C5Cc6ccccc6C5)[C@H]([C@@H]3C=C(CO)C[C@]2(O)C1=O)C4(C)C
100 to 600 nM
2) CC1=C[C@H]2[C@@]3(O)[C@H](C)C[C@]4(OC(=O)[C@@H](N)Cc5ccc(C(F)(F)F)cc5)[C@H]([C@@H]3C=C(CO)C[C@]2(O)C1=O)C4(C)C
100 to 600 nM

---

List of Ki tested on C1b domain of human PKCδ (Homo sapiens, UniProt Q05655).
Sequence (Q05655 230-280 limits assumed): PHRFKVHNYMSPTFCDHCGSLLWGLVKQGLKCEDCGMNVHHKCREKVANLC
Property: Ki

1. CC1=C[C@H]2[C@@]3(O)[C@H](C)C[C@]4(OC(=O)C(C)(C)C)[C@H]([C@@H]3C=C(CO)C[C@]2(O)C1=O)C4(C)C
10 to 30 nM
2. CC1=C[C@H]2[C@@]3(O)[C@H](C)C[C@]4(OC(=O)[C@H](N)C(C)(C)c5ccc(C(F)(F)F)cc5)[C@H]([C@@H]3C=C(CO)C[C@]2(O)C1=O)C4(C)C
10 to 30 nM
3. CC1=C[C@H]2[C@@]3(O)[C@H](C)C[C@]4(OC(=O)C5CC6(C5)CN(C(=O)OC(C)(C)C)C6)[C@H]([C@@H]3C=C(CO)C[C@]2(O)C1=O)C4(C)C
10 to 30 nM
4. CCCCCCCCCCCCCC(=O)O[C@@H]1[C@@H](C)[C@@]2(O)[C@@H](C=C(CO)C[C@]3(O)C(=O)C(C)=C[C@@H]23)[C@@H]2C(C)(C)[C@]12OC(C)=O [Compound K103, 12-O-Tetradecanoylphorbol-13-acetate, reference compound]
< 5 nM
5. CCCC[C@H](N)C(=O)O[C@@]12C[C@@H](C)[C@@]3(O)[C@@H](C=C(CO)C[C@]4(O)C(=O)C(C)=C[C@@H]34)[C@@H]1C2(C)C
10 to 30 nM
6. CC1=C[C@H]2[C@@]3(O)[C@H](C)C[C@]4(OC(=O)/C=C/c5ccc(C(F)(F)F)cc5)[C@H]([C@@H]3C=C(CO)C[C@]2(O)C1=O)C4(C)C
10 to 30 nM
7. CC1=C[C@H]2[C@@]3(O)[C@H](C)C[C@]4(OC(=O)[C@@H](N)C(C)(C)C)[C@H]([C@@H]3C=C(CO)C[C@]2(O)C1=O)C4(C)C
10 to 30 nM
8. CC1=C[C@H]2[C@@]3(O)[C@H](C)C[C@]4(OC(=O)[C@@H](N)CC5CC5)[C@H]([C@@H]3C=C(CO)C[C@]2(O)C1=O)C4(C)C
60 to 100 nM
9. CC1=C[C@H]2[C@@]3(O)[C@H](C)C[C@]4(OC(=O)[C@@H](N)CC(C)(C)C)[C@H]([C@@H]3C=C(CO)C[C@]2(O)C1=O)C4(C)C
10 to 30 nM
10. CC1=C[C@H]2[C@@]3(O)[C@H](C)C[C@]4(OC(=O)[C@@H](N)CCCCCCc5ccc(C(F)F)cc5)[C@H]([C@@H]3C=C(CO)C[C@]2(O)C1=O)C4(C)C
10 to 30 nM
11. CC1=C[C@H]2[C@@]3(O)[C@H](C)C[C@]4(OC(=O)[C@H](N)CCCCCCc5ccc(C(F)F)cc5)[C@H]([C@@H]3C=C(CO)C[C@]2(O)C1=O)C4(C)C
10 to 30 nM
12. CC1=C[C@H]2[C@@]3(O)[C@H](C)C[C@]4(OC(=O)[C@H](N)CCCCCCCCc5ccccc5)[C@H]([C@@H]3C=C(CO)C[C@]2(O)C1=O)C4(C)C
10 to 30 nM
13. CC1=C[C@H]2[C@@]3(O)[C@H](C)C[C@]4(OC(=O)[C@H](N)CC5CCCCC5)[C@H]([C@@H]3C=C(CO)C[C@]2(O)C1=O)C4(C)C
10 to 30 nM
